# Test system: Saccharomyces cerevisiae ATCC 9763
# Measurement notes: Antifungal activity in vitro, serial dilution in RPMI 1640
# Type: cell-based
# Condition: Table 2B
Reported MIC Saccharomyces cerevisiae ATCC 9763 values for a set of compounds
Please respond with the number in µg/mL and leave the unit unwritten.

Previously resolved entries follow.
Compound	MIC Saccharomyces cerevisiae ATCC 9763 / µg/mL
CC1OC(O[C@H]2/C=C/C=C/C=C/C=C/CC/C=C/C=C/[C@H](C)[C@@H](O)[C@@H](C)[C@H](C)OC(=O)C[C@H](O)C[C@H](O)C[C@H](O)CC[C@@H](O)[C@H](O)CC3(O)C[C@H](O)[C@@H](C(=O)O)[C@H](C2)O3)C(O)C(NC(=O)[C@H](N)CCC(=O)OC(C)(C)C)C1O (stereo partly drawn)	4
CC1OC(O[C@H]2/C=C/C=C/C=C/C=C/CC/C=C/C=C/[C@H](C)[C@@H](O)[C@@H](C)[C@H](C)OC(=O)C[C@H](O)C[C@H](O)C[C@H](O)CC[C@@H](O)[C@H](O)CC3(O)C[C@H](O)[C@@H](C(=O)O)[C@H](C2)O3)C(O)C(NC(=O)[C@H](N)CC(=O)OC(C)(C)C)C1O (stereo partly drawn)	4
CCCN(CCC)[C@@H]1[C@H](O)[C@H](O[C@H]2/C=C/C=C/C=C/C=C/CC/C=C/C=C/[C@H](C)[C@@H](O)[C@@H](C)[C@H](C)OC(=O)C[C@H](O)C[C@H](O)C[C@H](O)CC[C@@H](O)[C@H](O)C[C@]3(O)C[C@H](O)[C@@H](C(=O)O)[C@H](C2)O3)O[C@H](C)[C@H]1O	2
CC1OC(O[C@H]2/C=C/C=C/C=C/C=C/CC/C=C/C=C/[C@H](C)[C@@H](O)[C@@H](C)[C@H](C)OC(=O)C[C@H](O)C[C@H](O)C[C@H](O)CC[C@@H](O)[C@H](O)CC3(O)C[C@H](O)[C@@H](C(=O)O)[C@H](C2)O3)C(O)C(NC(=S)NCC(C)(C)CN(C)C)C1O (stereo partly drawn)	4
CCN(CC)[C@@H](Cc1ccccc1)C(=O)NC1C(O)C(C)OC(O[C@H]2/C=C/C=C/C=C/C=C/CC/C=C/C=C/[C@H](C)[C@@H](O)[C@@H](C)[C@H](C)OC(=O)C[C@H](O)C[C@H](O)C[C@H](O)CC[C@@H](O)[C@H](O)CC3(O)C[C@H](O)[C@@H](C(=O)O)[C@H](C2)O3)C1O (stereo partly drawn)	4

Alright, here's another compound for you.
[ask] Item: C[C@@H]1[C@H](O)[C@@H](C)/C=C/C=C/CC/C=C/C=C/C=C/C=C/C(O[C@H]2O[C@H](C)[C@@H](O)[C@H](N)[C@@H]2O)CC2O[C@](O)(CC(O)C(O)CCC(O)CC(O)CC(O)CC(=O)O[C@H]1C)CC(O)C2C(=O)O (stereo partly drawn) Test system: Saccharomyces cerevisiae ATCC 9763 Read-out: MIC Saccharomyces cerevisiae ATCC 9763 Value: ?
[reply] 0.5

###

# System: Candida tropicalis KKP 334
# Measurement notes: Antifungal activity in vitro, serial dilution in RPMI 1640
# Format: cell-based
# Condition: Table 2A; RPMI 1640, pH 7.0
Readout kind: Antifungal activity Candida tropicalis KKP 334 MIC (µg/mL)
Provide the reading as a plain figure in µg/mL.

Molecule	System	Recorded value
CC1OC(O[C@H]2/C=C/C=C/C=C/C=C/CC/C=C/C=C/[C@H](C)[C@@H](O)[C@@H](C)[C@H](C)OC(=O)C[C@H](O)C[C@H](O)C[C@H](O)CC[C@@H](O)[C@H](O)CC3(O)C[C@H](O)[C@@H](C(=O)O)[C@H](C2)O3)C(O)C(NC(=O)[C@H](N)Cc2cccc3ccccc23)C1O (stereo partly drawn)	Candida tropicalis KKP 334	8
CCCN(CCC)[C@@H]1[C@H](O)[C@H](O[C@H]2/C=C/C=C/C=C/C=C/CC/C=C/C=C/[C@H](C)[C@@H](O)[C@@H](C)[C@H](C)OC(=O)C[C@H](O)C[C@H](O)C[C@H](O)CC[C@@H](O)[C@H](O)C[C@]3(O)C[C@H](O)[C@@H](C(=O)O)[C@H](C2)O3)O[C@H](C)[C@H]1O	Candida tropicalis KKP 334	4

[ask] Fill in the recorded Antifungal activity Candida tropicalis KKP 334 MIC for this molecule, with Candida tropicalis KKP 334 as test system: CC1OC(O[C@H]2/C=C/C=C/C=C/C=C/CC/C=C/C=C/[C@H](C)[C@@H](O)[C@@H](C)[C@H](C)OC(=O)C[C@H](O)C[C@H](O)C[C@H](O)CC[C@@H](O)[C@H](O)CC3(O)C[C@H](O)[C@@H](C(=O)O)[C@H](C2)O3)C(O)C(NC(=O)[C@H](N)Cc2cccnc2)C1O (stereo partly drawn)
[reply] 16
